Experimental System: Fibroblast growth factor 2 (Homo sapiens) (UniProt P09038)
Sequence (P09038 whole entry, looked up): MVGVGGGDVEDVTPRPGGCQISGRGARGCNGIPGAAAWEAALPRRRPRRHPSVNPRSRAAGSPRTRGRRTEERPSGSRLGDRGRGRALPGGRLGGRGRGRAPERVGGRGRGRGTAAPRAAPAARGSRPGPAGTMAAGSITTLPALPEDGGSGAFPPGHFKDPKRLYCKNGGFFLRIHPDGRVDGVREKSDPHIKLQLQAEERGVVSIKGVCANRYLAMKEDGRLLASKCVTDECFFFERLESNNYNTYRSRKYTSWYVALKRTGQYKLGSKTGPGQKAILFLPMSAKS
Procedure Text: FGF2 binders on small-molecule microarrays, primary screen, biochemical, small-molecule microarray, 635/667 nm fluorescence (AID 1133)
Reported Conditions: small-molecule microarray binding, FGF2, fluorescence 635/667; higher = more signal
Known composite z-score of a selection of molecules
Give the figure by itself; no unit, no explanation.

Use these answered entries as a reference point.
{"Molecule": "CN1C(=O)C2C=CC(C(O)C3CC=CCC3)N(Nc3ccccc3)C2C1=O (stereo unspecified)", "composite z-score": 0.769}
{"Molecule": "CC(=O)NCCCC[C@@H]1NC(=O)[C@H]2C[C@@H](C(=O)NCCCCCCN(C)C)[C@@H](c3cccc(OCCO)c3)N2C1=O", "composite z-score": 1.33}
{"Molecule": "CC(C)NC(=O)[C@@]1(Cc2ccccc2I)c2ccccc2C(=O)N(C2CCCCC2)[C@H]1c1ccc(CO)cc1", "composite z-score": 0.148}
{"Molecule": "COc1cc(CO)cc(I)c1O[C@H]1C=C(C(=O)NCCO)C[C@@H](NCCc2c[nH]c3ccccc23)[C@@H]1O", "composite z-score": 0.243}
{"Molecule": "COC(=O)C1=C(C)N(Cc2ccccc2)c2c(C(=O)OC)c(C(=O)OC)c(C(=O)OC)c(=O)n2[C@@H]1c1ccccc1", "composite z-score": 0.528}

Incoming: # get_value(readout='composite z-score', item= O=C(N1CCCCC1)[C@@]1(CCS(=O)(=O)c2ccccc2)N=C(c2ccc(OCCCO)cc2)O[C@H]1c1ccccc1 )
Outgoing: -0.0973

Incoming: # get_value(readout='composite z-score', item= C[C@H]1NC(=O)[C@@H](C)NC(=O)[C@@]23C(=O)N[C@@H](Cc4ccccc4)C2[C@H](C)[C@@]2(C)O[C@H]2C3/C=C/C/C=C\CNC1=O (stereo partly specified) )
Outgoing: 0.0213

Incoming: # get_value(readout='composite z-score', item= CCN1C(C)=C(C(=O)OC)[C@@H](c2ccccc2)N2C(=O)[C@@]3(C(=O)OC)O[C@@]12[C@@H]1C(=O)CCC[C@@H]13 )
Outgoing: 1.01

Incoming: # get_value(readout='composite z-score', item= O=C(CS)NCCCCCNC(=O)[C@H]1C[C@H]2C(=O)N[C@@H](Cc3ccccc3)C(=O)N2[C@H]1c1ccc(O)cc1 )
Outgoing: 1.14

Incoming: # get_value(readout='composite z-score', item= C=CCC1=C[C@H]2[C@H]([C@@H]3C=C[C@]2(CC=C)C(=O)[C@]32CO2)[C@@]2(CO2)C1=O )
Outgoing: 1.45

Incoming: # get_value(readout='composite z-score', item= CC(C)N1CC=CC23O[C@@H]4/C=C\CCCOC(=O)C4[C@H]2C(=O)N(CCO)[C@@H]3C1=O (stereo partly specified) )
Outgoing: -0.635

###

Procedure Text: S. cerevisiae RM11-1a growth modifiers, primary screen, strain RM11-1a, OD600, basal, 24 h (AID 1177);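 further: cultures grown under basal conditions with no added stressor; test concentration not given here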
Reported Conditions: OD600, 24 h, higher = more signal, called active from +8 up or from −8 down
Response key: YES means z-score >= -0.5; NO means z-score < -0.5.

// below: answered molecules
{"Smiles Text": "Cc1ccc(N2C(=O)c3ccccc3[C@](C)(C(=O)O)[C@@H]2c2ccc(CO)cc2)nc1", "Class Assignment": "YES"}
{"Smiles Text": "CCOC(=O)C[C@H]1[C@H](OC(=O)c2cc3ccccc3oc2=O)[C@@H](NC(=O)c2ccc3ccccc3c2)c2cc(OCCCO)ccc2N1C(=O)c1ccc2ccccc2n1", "Class Assignment": "NO"}
{"Smiles Text": "O=C(NCc1ccccc1)c1ccc(Br)cc1[N+](=O)[O-]", "Class Assignment": "YES"}
{"Smiles Text": "O=C1O[C@@H](c2ccccc2)[C@@H](c2ccccc2)N2[C@@H](c3ccc(OCCO)cc3)[C@]3(C(=O)Nc4ccc(C#CCCO)cc43)[C@@H](C(=O)N3CCN(c4ncccn4)CC3)[C@H]12", "Class Assignment": "YES"}
{"Smiles Text": "O=C/C=C/c1ccccc1Cl", "Class Assignment": "NO"}

Incoming: Determine whether measured z-score meets or exceeds -0.5 for C=C(/C(=C/C[C@@H](OC(=O)c1ccncc1)c1ccc(CO)o1)c1cnc2ccccc2c1)C(C)C
Outgoing: YES

Incoming: Determine whether measured z-score meets or exceeds -0.5 for C=CCOC(=O)[C@@H]1[C@H]2C(=O)O[C@H](c3ccccc3)[C@H](c3ccccc3)N2[C@H](c2ccc(OCCOC(=O)[C@H]3C[C@H]4C(=O)N5CCC[C@H]5C(=O)N4[C@H]3c3ccc(O)cc3)cc2)[C@@]12C(=O)Nc1ccccc12
Outgoing: YES

###

System: Lefty1
Procedure Text: Lefty1 binders on small-molecule microarrays, primary screen, biochemical, small-molecule microarray, 635/667 nm fluorescence (AID 1139)
Reported Conditions: small-molecule microarray binding, fluorescence 635/667; higher = more signal
Response key: True means composite z-score >= -0.1; False means composite z-score < -0.1.

// below: answered molecules
{"Smiles Text": "COC(=O)C[C@H]1O[C@]2(C(=O)N(Cc3ccccc3)c3ccc(I)cc32)[C@@H](C)[C@@H]1[Si](C)(C)c1ccc(OC)cc1", "Class Assignment": "False"}
{"Smiles Text": "O=C(O)[C@@H]1Cc2c([nH]c3ccccc23)[C@@H](c2ccccc2)N1", "Class Assignment": "True"}

Incoming: Determine whether measured composite z-score meets or exceeds -0.1 for CO[C@H]1O[C@H](CO)[C@@H](OC(=O)Nc2ccccc2)[C@H](OC(=O)Nc2ccc3c(c2)OCO3)[C@@H]1OC(=O)Nc1ccc2c(c1)OCO2
Outgoing: True

Incoming: Determine whether measured composite z-score meets or exceeds -0.1 for COc1ccc(-c2ccccc2[C@@H]2N[C@H](C(=O)O)CC[C@H]2C)cc1
Outgoing: True

Incoming: Determine whether measured composite z-score meets or exceeds -0.1 for O=C(N1CCCCC1)[C@@]1(CCS(=O)(=O)c2ccccc2)N=C(c2ccc(OCCCO)cc2)O[C@H]1c1ccccc1
Outgoing: True

###

Procedure Text: S. cerevisiae growth modulation with rapamycin, primary screen, strain BY4716, OD600, 96 h (AID 1091); further: test concentration not given here
Reported Conditions: higher = more signal, called active from +8 up or from −8 down
Value Kind: z-score
Give the figure by itself; no unit, no explanation.

{"Compound": "C=C(/C(=C/C[C@@H](OC(=O)c1ccncc1)c1ccc(CO)o1)c1cnc2ccccc2c1)C(C)C", "z-score": -0.147}
{"Compound": "C[C@@H]1CC[C@H]2C(=O)N3[C@@H](CC[C@@H](C)[C@@H]3c3cccc(N4CCOCC4)c3)C(=O)N2[C@H]1c1cccc(N2CCOCC2)c1", "z-score": 0.651}
{"Compound": "CC(C)[Si](OCC[C@H]1O[C@]2(C(=O)N(Cc3ccccc3)c3ccccc32)[C@@H](C)[C@@H]1[Si](C)(C)O)(C(C)C)C(C)C", "z-score": 1.24}
{"Compound": "COC(=O)C1=C(C)N(Cc2ccccc2)c2c(C(=O)OC)c(C(=O)OC)c(C(=O)OC)c(=O)n2[C@@H]1c1ccccc1", "z-score": -0.389}
{"Compound": "O=C(CS)NCCCCCNC(=O)[C@H]1C[C@H]2C(=O)N[C@@H](Cc3ccccc3)C(=O)N2[C@H]1c1ccc(O)cc1", "z-score": 1.86}

Turning now to a further record.
Incoming: # get_value(readout='z-score', item= C[C@]1(C(=O)NCc2ccccc2)c2ccccc2C(=O)N(Cc2cc(C(F)(F)F)cc(C(F)(F)F)c2)[C@H]1c1ccc(CO)cc1 )
Outgoing: -2.11

###

Experimental System: Left-right determination factor 2 (Homo sapiens)
Procedure Text: LEFTY2 binders on small-molecule microarrays, primary screen, biochemical, small-molecule microarray, 635 nm fluorescence scan (AID 1110)
Reported Conditions: LEFTY2 binding, higher = more signal
Known composite z-score of a selection of compounds
Give the figure by itself; no unit, no explanation.

Use these answered entries as a reference point.
{"Compound": "C=C(CCCC)C(=O)CC[C@@H](OC(C)=O)c1ccccc1OCCO", "Value Kind": "composite z-score", "Value Reported": -0.941}
{"Compound": "COC(=O)c1c(CC[C@@H](CO)NC(=O)N[C@H](Cn2cc(-c3cncn3C)nn2)C(C)C)oc(C(C)=O)c1C(=O)OC", "Value Kind": "composite z-score", "Value Reported": 0.332}

Incoming: # get_value(readout='composite z-score', item= CN1C2C=C(c3ccc(CO)cc3)C(C3C(=O)N(C(N)=O)C(=O)C32)C1c1cccs1 (stereo not drawn) )
Outgoing: 0.217

Incoming: # get_value(readout='composite z-score', item= C[C@@H]1CC[C@H]2C(=O)N3CCC[C@H]3C(=O)N2[C@H]1c1ccc(Br)cc1 )
Outgoing: 0.267

Incoming: # get_value(readout='composite z-score', item= O=C(N1CCCCC1)[C@@]1(CCS(=O)(=O)c2ccccc2)N=C(c2ccc(OCCCO)cc2)O[C@H]1c1ccccc1 )
Outgoing: -0.197

Incoming: # get_value(readout='composite z-score', item= CCCNC(=O)[C@@H]1c2ccccc2C(=O)N(Cc2cc(F)cc(C(F)(F)F)c2)[C@H]1c1ccc(CO)cc1 )
Outgoing: 0.498

Incoming: # get_value(readout='composite z-score', item= C=CC[C@@]1(C(=O)NCC(O)CO)N=C(c2ccc(OCCCO)cc2)O[C@@H]1c1ccccc1CN=[N+]=[N-] (stereo partly drawn) )
Outgoing: -1.44

Incoming: # get_value(readout='composite z-score', item= C=C[C@H](OC)[C@@H](OC(=O)Nc1ccc(SC)cc1)c1ccc(O)c(F)c1 )
Outgoing: -0.367

Incoming: # get_value(readout='composite z-score', item= COC(=O)[C@@]1(Cc2ccccc2CN=[N+]=[N-])N=C(c2ccc(OCCCO)cc2)O[C@H]1c1ccccc1N=[N+]=[N-] )
Outgoing: -0.453

Incoming: # get_value(readout='composite z-score', item= CO[C@H]1COC(=O)[C@H](C)COC(=O)[C@H](Cc2ccccc2)NC(=O)CC=C[C@H]1C )
Outgoing: 1.09

Incoming: # get_value(readout='composite z-score', item= C=C(COC)/C(=C/C[C@@H](OC(=O)c1ccncc1)c1ccc(OCCO)cc1)c1cc(C(=O)OC)ccc1OC )
Outgoing: -0.428

Incoming: # get_value(readout='composite z-score', item= C=CCC(OC(C)=O)[C@@H]1[C@@H](N(Cc2cccc3ccccc23)C(=O)Cc2ccc(F)cc2)c2cc(OCCCO)ccc2N1C(=O)Cc1ccc2ccccc2c1 (stereo partly drawn) )
Outgoing: -0.368

Incoming: # get_value(readout='composite z-score', item= CO[C@@H]1COC(=O)[C@H](C)NC(=O)CC=C[C@@H](C)[C@H](OC)COC(=O)[C@H](C)NC(=O)CC=C[C@H]1C )
Outgoing: 0.787

Incoming: # get_value(readout='composite z-score', item= C[C@H]1NC(=O)[C@@H](C)NC(=O)[C@@]23C(=O)N[C@@H](Cc4ccccc4)C2[C@H](C)[C@@]2(C)O[C@H]2C3/C=C/C/C=C\CNC1=O (stereo partly drawn) )
Outgoing: 0.182

Incoming: # get_value(readout='composite z-score', item= CO[C@H]1COC(=O)[C@H](CCSC)NC(=O)CC=C[C@@H](C)COC(=O)[C@@H](OCc2ccccc2)C=C[C@@H]1C )
Outgoing: 1.23

Incoming: # get_value(readout='composite z-score', item= O=C1O[C@H](c2ccccc2)[C@H](c2ccccc2)N2[C@H]1[C@@H](C(=O)NC[C@H](O)c1ccccc1)[C@]1(C(=O)Nc3ccc(C#CC4=CCCCC4)cc31)[C@H]2c1ccc(OCCO)cc1 )
Outgoing: 0.377

Incoming: # get_value(readout='composite z-score', item= O=C1OCC=C[C@H]2OC34C=CCN(Cc5ccccc5)C(=O)[C@H]3N(CCCCCO)C(=O)[C@@H]4[C@@H]12 (stereo partly drawn) )
Outgoing: -1.84

Incoming: # get_value(readout='composite z-score', item= [N-]=[N+]=NCc1ccccc1C[C@]1(C(N)=O)N=C(c2ccc(OCCCO)cc2)O[C@H]1c1ccccc1CN=[N+]=[N-] )
Outgoing: -0.854

Incoming: # get_value(readout='composite z-score', item= CC(C)(C)OC(=O)CC[C@@]1(C(=O)NCc2ccccc2)N=C(c2ccc(OCCCO)cc2)O[C@@H]1c1ccccc1 )
Outgoing: 0.144

Incoming: # get_value(readout='composite z-score', item= CCN1C(C)=C(C(=O)OC)[C@@H](c2ccccc2)N2C(=O)[C@@]3(C(=O)OC)O[C@@]12[C@@H]1C(=O)N(C)C(=O)[C@@H]13 )
Outgoing: 0.72
